Origin of measurements: ChEMBL document CHEMBL3232869

Test system: RAW264.7
Assay: Antiinflammatory activity in mouse RAW264.7 cells assessed as inhibition of LPS-induced nitric oxide production at 0.4 uM after 18 hrs by griess reaction analysis
Format: functional, cell-based
The source made the active and inactive calls. The calls are words filed in the database; no cut-off is given here.
measurement-type: inhibition

INSERT INTO measurements (compound, target_desc, endpoint_result) VALUES
  ('O=C(O[C@H]1[C@H](Oc2c(-c3ccc(O)cc3)oc3cc(O)cc(O)c3c2=O)O[C@H](CO)[C@@H](O)[C@@H]1O)c1cc(O)c(O)c(O)c1', 'RAW264.7', 'inactive'),
  ('O=C(O[C@@H]1O[C@@H]2COC(=O)c3cc(O)c(O)c(O)c3-c3c(cc(O)c(O)c3O)C(=O)O[C@H]([C@H]1O)[C@@H]2O)c1cc(O)c(O)c(O)c1', 'RAW264.7', 'inactive'),
  ('COC/C=C/c1cc(OC)c(O[C@@H]2O[C@H](CO)[C@@H](O)[C@H](O)[C@H]2O)c(OC)c1', 'RAW264.7', 'inactive'),
  ('O=c1c(O[C@@H]2O[C@H](CO)[C@H](O)[C@H](O)[C@H]2O)c(-c2ccc(O)c(O)c2)oc2cc(O)cc(O)c12 [HYPEROSIDE]', 'RAW264.7', 'inactive'),
  ('O=c1c(O[C@@H]2O[C@H](CO)[C@@H](O)[C@H](O)[C@H]2O)c(-c2cc(O)c(O)c(O)c2)oc2cc(O)cc(O)c12', 'RAW264.7', 'inactive');

For each entry beneath this line, provide reported inhibition.
1. O=C(O[C@H]1[C@H](Oc2c(-c3ccc(O)c(O)c3)oc3cc(O)cc(O)c3c2=O)O[C@H](CO)[C@@H](O)[C@@H]1O)c1cc(O)c(O)c(O)c1
2. COC(=O)[C@H]1CC(=O)c2oc(=O)c3cc(O)c(O)c(O)c3c21

Result:
inactive
inactive

###

Biological target: Bifunctional epoxide hydrolase 2 (Homo sapiens)
Sequence (P34913 whole entry): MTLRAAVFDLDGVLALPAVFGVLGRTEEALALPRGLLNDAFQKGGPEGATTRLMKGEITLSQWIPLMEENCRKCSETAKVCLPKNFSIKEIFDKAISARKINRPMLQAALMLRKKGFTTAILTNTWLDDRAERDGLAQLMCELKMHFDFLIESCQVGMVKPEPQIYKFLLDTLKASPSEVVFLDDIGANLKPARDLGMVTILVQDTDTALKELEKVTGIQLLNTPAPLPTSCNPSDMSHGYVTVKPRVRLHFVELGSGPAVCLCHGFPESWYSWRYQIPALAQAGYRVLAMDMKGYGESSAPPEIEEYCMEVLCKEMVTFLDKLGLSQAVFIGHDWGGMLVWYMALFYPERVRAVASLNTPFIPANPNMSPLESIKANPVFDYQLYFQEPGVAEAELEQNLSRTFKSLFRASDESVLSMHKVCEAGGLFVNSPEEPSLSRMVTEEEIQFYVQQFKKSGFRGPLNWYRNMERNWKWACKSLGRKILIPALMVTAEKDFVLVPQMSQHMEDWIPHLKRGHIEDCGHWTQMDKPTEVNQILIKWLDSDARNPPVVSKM
Test: Inhibition of sEH (unknown origin) assessed as substrate PHOME hydrolysis after 1 hr by fluorescence method
measurement-type: pIC50
Give bare numbers, as −log10 of the molar value.

Solved entries:
INSERT INTO results (chem_smiles, measurement_type, endpoint_result) VALUES
  ('O=c1c(O[C@@H]2O[C@H](CO)[C@@H](O)[C@H](O)[C@H]2O)c(-c2cc(O)c(O)c(O)c2)oc2cc(O)cc(O)c12', 'pIC50', 4.76),
  ('O=C(OC[C@H]1O[C@@H](OC(=O)c2cc(O)c(O)c(O)c2)[C@H](O)[C@@H](OC(=O)c2cc(O)c(O)c(O)c2)[C@@H]1OC(=O)c1cc(O)c(O)c(O)c1)c1cc(O)c(O)c(O)c1', 'pIC50', 4.44);

# context switch: different compound, same pIC50
Q: Requested read-out: pIC50. Entry: O=C(O[C@H]1[C@H](Oc2c(-c3ccc(O)cc3)oc3cc(O)cc(O)c3c2=O)O[C@H](CO)[C@@H](O)[C@@H]1OC(=O)c1cc(O)c(O)c(O)c1)c1cc(O)c(O)c(O)c1
Result: 4.62

###

For each entry below, report its pIC50 value.
System: RAW264.7
Assay: Antiinflammatory activity in mouse RAW264.7 cells assessed as inhibition of LPS-induced nitric oxide production after 18 hrs by griess reaction analysis
Type: functional, cell-based
Details: RAW264.7, 18 h
Give bare numbers, as −log10 of the molar value.

INSERT INTO assay_data (molecule, measurement_type, endpoint_result) VALUES
  ('O=c1c(O[C@@H]2O[C@H](CO)[C@H](O)[C@H](O)[C@H]2O)c(-c2ccc(O)c(O)c2)oc2cc(O)cc(O)c12 [HYPEROSIDE]', 'pIC50', 4.31),
  ('C[C@@H]1O[C@@H](OC[C@H]2O[C@@H](Oc3c(-c4ccc(O)cc4)oc4cc(O)cc(O)c4c3=O)[C@H](O)[C@@H](O)[C@@H]2O)[C@H](O)[C@H](O)[C@H]1O [NICOTIFLOROSIDE]', 'pIC50', 4.34),
  ('O=c1oc2c(O)c(O)cc3c(=O)oc4c(O)c(O)cc1c4c23 [ELLAGIC ACID]', 'pIC50', 4.45),
  ('COC/C=C/c1ccc(O[C@@H](CO)CO[C@@H]2O[C@H](CO)[C@@H](O)[C@H](O)[C@H]2O)c(OC)c1', 'pIC50', 4.54),
  ('O=C(O[C@@H]1O[C@@H]2COC(=O)c3cc(O)c(O)c(O)c3-c3c(cc(O)c(O)c3O)C(=O)O[C@H]([C@H]1O)[C@@H]2O)c1cc(O)c(O)c(O)c1 [CORILAGIN]', 'pIC50', 4.60);

For each entry beneath this line, provide reported pIC50.
1. COC/C=C/c1cc(OC)c(O[C@@H]2O[C@H](CO)[C@@H](O)[C@H](O)[C@H]2O)c(OC)c1
2. O=c1c(O[C@@H]2O[C@H](CO)[C@@H](O)[C@H](O)[C@H]2O)c(-c2ccc(O)cc2)oc2cc(O)cc(O)c12 [ASTRAGALIN]
3. COC(=O)[C@H]1CC(=O)c2oc(=O)c3cc(O)c(O)c(O)c3c21
4. OC[C@H]1O[C@@H](OCc2ccccc2)[C@H](O)[C@@H]1O
5. O=C1C[C@H](C(=O)O)c2c1oc(=O)c1cc(O)c(O)c(O)c21

Result:
4.76
4.43
4.62
4.61
4.39

For each entry beneath this line, provide reported pIC50.
1. COc1cc(/C=C/CO)cc(OC)c1O[C@@H]1O[C@H](CO)[C@@H](O)[C@H](O)[C@H]1O [SYRINGIN]
2. Cc1ccc(-c2cc(C(F)(F)F)nn2-c2ccc(S(N)(=O)=O)cc2)cc1 [CELECOXIB]

Result:
4.62
5.74

###

Test system: RAW264.7
Assay: Cytotoxicity against mouse RAW264.7 cells assessed as cell viability at 50 uM after 18 hrs by MTT assay in presence of LPS
Format: cell-based
Conditions: raw264.7, 18 h
measurement-type: Activity

INSERT INTO assay_data (compound, endpoint_result) VALUES
  ('C[C@@H]1O[C@@H](OC[C@H]2O[C@@H](Oc3c(-c4ccc(O)cc4)oc4cc(O)cc(O)c4c3=O)[C@H](O)[C@@H](O)[C@@H]2O)[C@H](O)[C@H](O)[C@H]1O [NICOTIFLOROSIDE]', 'Non-toxic'),
  ('O=c1c(O[C@@H]2O[C@H](CO)[C@@H](O)[C@H](O)[C@H]2O)c(-c2ccc(O)cc2)oc2cc(O)cc(O)c12', 'Non-toxic'),
  ('COc1cc(/C=C/CO)cc(OC)c1O[C@@H]1O[C@H](CO)[C@@H](O)[C@H](O)[C@H]1O', 'Non-toxic'),
  ('C[C@@H]1O[C@@H](OC[C@H]2O[C@@H](Oc3c(-c4ccc(O)c(O)c4)oc4cc(O)cc(O)c4c3=O)[C@H](O)[C@@H](O)[C@@H]2O)[C@H](O)[C@H](O)[C@H]1O', 'Non-toxic');

For each entry beneath this line, provide reported Activity.
1. COC(=O)c1cc(O)c(O)c(O)c1
2. O=C(CCc1ccc(O)cc1)c1c(O)cc(O)cc1O[C@@H]1O[C@H](CO)[C@@H](O)[C@H](O)[C@H]1O
3. O=C(O[C@H]1[C@H](Oc2c(-c3ccc(O)cc3)oc3cc(O)cc(O)c3c2=O)O[C@H](CO)[C@@H](O)[C@@H]1OC(=O)c1cc(O)c(O)c(O)c1)c1cc(O)c(O)c(O)c1

Result:
["Non-toxic", "Non-toxic", "Non-toxic"]

###

Target: Bifunctional epoxide hydrolase 2 (Homo sapiens, UniProt P34913)
Assay: Inhibition of sEH (unknown origin) assessed as substrate PHOME hydrolysis after 1 hr by fluorescence method
measurement-type: pIC50
Numbers only, as −log10 of the molar value.

Solved entries:
INSERT INTO assay_data (compound, endpoint_result) VALUES
  ('O=C(O[C@H]1[C@H](Oc2c(-c3ccc(O)c(O)c3)oc3cc(O)cc(O)c3c2=O)O[C@H](CO)[C@@H](O)[C@@H]1O)c1cc(O)c(O)c(O)c1', 4.74),
  ('O=c1c(O[C@@H]2O[C@H](CO)[C@H](O)[C@H](O)[C@H]2O)c(-c2ccc(O)c(O)c2)oc2cc(O)cc(O)c12 [HYPEROSIDE]', 4.66);

# context switch: different compound, same pIC50
Q: Requested read-out: pIC50. Entry: O=C(O[C@H]1[C@H](Oc2c(-c3ccc(O)cc3)oc3cc(O)cc(O)c3c2=O)O[C@H](CO)[C@@H](O)[C@@H]1O)c1cc(O)c(O)c(O)c1
Result: 4.56
